Target: UniProtKB P06493
Sequence (P06493 whole entry): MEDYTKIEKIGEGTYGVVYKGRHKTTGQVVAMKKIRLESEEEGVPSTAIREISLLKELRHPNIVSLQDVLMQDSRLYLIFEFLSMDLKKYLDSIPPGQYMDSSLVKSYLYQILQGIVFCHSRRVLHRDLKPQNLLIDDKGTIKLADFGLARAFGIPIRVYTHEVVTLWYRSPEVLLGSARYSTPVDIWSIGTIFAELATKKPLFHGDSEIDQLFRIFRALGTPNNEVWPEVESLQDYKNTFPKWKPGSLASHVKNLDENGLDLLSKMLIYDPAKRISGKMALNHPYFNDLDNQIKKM
Experiment: Inhibitory activity against cyclin-dependent kinase 1 (CDK1) was determined
Recorded pIC50, one value per entry.
Please treat pIC50 as minus the base-10 logarithm of the molar concentration.

CCn1cnc2c(Nc3cccc(C#N)c3)nc(NCCN)nc21.Cl
6.25
CCn1cnc2c(Nc3cccc(F)c3)nc(N[C@@H]3CCCC[C@@H]3N)nc21
6.60
CCn1cnc2c(Nc3cccc(F)c3)nc(N[C@H]3CC[C@@H](N)CC3)nc21
6.46

Request: Name the reported pIC50 value associated with the compound CCn1cnc2c(Nc3cccc(C(F)(F)F)c3)nc(NCCN)nc21
Response: 6.15

Request: If you can, please state the reported pIC50 value of CCn1cnc2c(Nc3cccc(OC)c3)nc(N[C@@H]3CCCC[C@@H]3N)nc21 .
Response: 6.64

Request: Tell me the measured pIC50 of CCn1cnc2c(Nc3cccc(F)c3)nc(NCCO)nc21 , please.
Response: 6.36

Request: Reported pIC50, compound CCn1cnc2c(Nc3cccc(Cl)c3)nc(N[C@@H]3CCCC[C@@H]3N)nc21 (stereo in doubt; 13) : ____
Response: 7.60

Request: // query pIC50 value for entry CCn1cnc2c(Nc3cccc(OC)c3)nc(NCCN)nc21
Response: 6.26

Request: Please look up its pIC50: CCn1cnc2c(Nc3cccc(C(F)(F)F)c3)nc(NCCN)nc21.Cl
Response: 6.15

Request: Form field: reported pIC50 of CCn1cnc2c(Nc3ccc(F)cc3)nc(NCCO)nc21
Response: 6.42

Request: Which measured pIC50 value corresponds to CCn1cnc2c(Nc3cccc(Cl)c3)nc(N[C@@H]3CCCC[C@@H]3N)nc21 (stereo in doubt; 12) ?
Response: 6.96

# credit: ChEMBL document CHEMBL1132163
